Target Desc: human mGlu4 receptor (Homo sapiens)
Construct: expressed in transfected cells; host or cells: HEK-293 (monoclonal, stably transfected)
Test Protocol: Ca2+ mobilization in vitro assay on recombinant human mGlu4 expressed in HEK293 cells (mGlu4 PAM)
Type: cell-based
Cond: HEK293; maximal response in % of the maximal stimulatory effect obtained with saturating concentrations of L-AP4; read-out: Eff. (%)

Compound: CN1C(=O)N(c2c(F)cc(C#Cc3ccccc3)cc2F)C(=O)C[C@@]1(C)c1cccnn1 [Example 58]
Emax / %: 99

Compound: Cc1nccc([C@]2(C)CC(=O)N(c3c(F)cc(C#Cc4ccccc4)cc3F)C(=O)N2C)n1 [Example 76]
Emax / %: 111

Compound: Cc1cc([C@]2(C)CC(=O)N(c3c(F)cc(C#Cc4ccccc4)cc3F)C(=O)N2C)ccn1 [Example 62]
Emax / %: 102

Compound: CN1C(=O)N(c2c(F)cc(C#Cc3ccccc3)cc2F)C(=O)C[C@@]1(C)c1ccc(=O)[nH]n1 [Example 82]
Emax / %: 115

---

Target Desc: human mGlu4 receptor (Homo sapiens)
Construct: expressed in transfected cells; host or cells: HEK-293 (monoclonal, stably transfected)
Test Protocol: Ca2+ mobilization in vitro assay on recombinant human mGlu4 expressed in HEK293 cells (mGlu4 PAM)
Format: cell-based
Cond: HEK-293 cells, Ca2+ mobilization, L-AP4 added at EC20
Overview of recorded EC50 for various molecules
Value Kind: EC50 (nM)

Molecule: CN1C(=O)N(c2ncc(C#Cc3ccccc3)cc2C(F)(F)F)C(=O)CC1(C)c1ccccc1 (racemic)
Measured Result: 116

Molecule: CC(C)N1CCN2C(=O)N(c3c(F)cc(C#Cc4ccccc4)cc3F)C(=O)CC2(C)C1=O (racemic)
Measured Result: 169

Molecule: CN1C(=O)N(c2ccc(C#Cc3ccccc3)cc2Cl)C(=O)CC1(C)C
Measured Result: 341

Molecule: CN1C(=O)N(c2ccc(C#Cc3ccccc3)cc2Cl)C(=O)CC12CCCCC2
Measured Result: 245

Molecule: CN1C(=O)N(c2c(F)cc(C#Cc3cccnc3)cc2F)C(=O)CC1(c1ccccc1)C(F)(F)F (racemic)
Measured Result: 82

Molecule: CN1C(=O)N(c2c(F)cc(C#Cc3ccccc3)cc2F)C(=O)CC1(C)c1ccncc1 (racemic)
Measured Result: 112

Molecule: CCC1(C)CC(=O)N(c2c(F)cc(C#Cc3ccccc3)cc2F)C(=O)N1C (racemic)
Measured Result: 49

Molecule: CN1C(=O)N(c2c(F)cc(C#Cc3ccccc3)cc2F)C(=O)C[C@@]1(C)c1cnccn1
Measured Result: 117

Molecule: CN1C(=O)N(c2c(F)cc(C#Cc3ccccc3)cc2F)C(=O)C[C@@]1(C)c1ccncn1
Measured Result: 44

Molecule: CC12CC(=O)N(c3c(F)cc(C#Cc4ccccc4)cc3F)C(=O)N1CCNC2=O (racemic)
Measured Result: 83

Molecule: CN1C(=O)N(c2c(F)cc(C#Cc3ccccc3)cc2F)C(=O)CC1(C)C
Measured Result: 92

Molecule: CN1C(=O)N(c2ncc(C#Cc3ccccc3)cc2F)C(=O)CC1(C)c1ccccc1 (racemic)
Measured Result: 72

Molecule: CN1C(=O)N(c2c(F)cc(C#Cc3ccccc3)cc2Cl)C(=O)C[C@@]1(C)c1cccnc1
Measured Result: 148

Molecule: CN1C(=O)N(c2c(F)cc(C#Cc3ccccc3)cc2F)C(=O)C[C@@]1(C)c1cncnc1
Measured Result: 79

Molecule: Cc1ccc([C@]2(C)CC(=O)N(c3c(F)cc(C#Cc4ccccc4)cc3F)C(=O)N2C)cn1
Measured Result: 70

Molecule: CN1C(=O)N(c2c(F)cc(C#Cc3cccnc3)cc2F)C(=O)CC1(C)c1cccc(Cl)c1 (racemic)
Measured Result: 224

---

Overview of recorded Emax for various compounds
Target Desc: human mGlu4 receptor (Homo sapiens)
Construct: expressed in transfected cells; host or cells: HEK-293 (monoclonal, stably transfected)
Test Protocol: Ca2+ mobilization in vitro assay on recombinant human mGlu4 expressed in HEK293 cells (mGlu4 PAM)
Format: cell-based
Cond: HEK293; maximal response in % of the maximal stimulatory effect obtained with saturating concentrations of L-AP4; read-out: Eff. (%)

Compound: CN1C(=O)N(c2ccc(C#Cc3ccccc3)cc2Cl)C(=O)CC12CCCCC2 [Example 3]
Emax / %: 105
--
Compound: CN1C(=O)N(c2c(F)cc(C#Cc3ccccc3)cc2F)C(=O)C[C@@]1(C)c1ccncn1 [Example 55]
Emax / %: 106
--
Compound: CN1C(=O)N(c2c(F)cc(C#Cc3cccnc3)cc2F)C(=O)CC1(C)c1ccccc1 (stereo in doubt) [Example 19]
Emax / %: 178
--
Compound: CN1C(=O)N(c2c(F)cc(C#Cc3cccnc3)cc2F)C(=O)CC1(C)c1cccc(Cl)c1 (racemic) [Example 39]
Emax / %: 112
--
Compound: CC12CC(=O)N(c3c(F)cc(C#Cc4ccccc4)cc3F)C(=O)N1CCN(c1ccccc1)C2=O (racemic) [Example 38]
Emax / %: 105
--
Compound: COc1ccc([C@]2(C)CC(=O)N(c3c(F)cc(C#Cc4ccccc4)cc3F)C(=O)N2C)nn1 [Example 81]
Emax / %: 100
--
Compound: CN1C(=O)N(c2ncc(C#Cc3ccccc3)cc2F)C(=O)CC1(C)c1ccccc1 (racemic) [Example 45]
Emax / %: 107
--
Compound: CN1C(=O)N(c2c(F)cc(C#Cc3cccnc3)cc2F)C(=O)CC1(C)c1ccccc1 (stereo in doubt) [Example 20]
Emax / %: 175
--
Compound: CN1C(=O)N(c2ncc(C#Cc3ccccc3)cc2C(F)(F)F)C(=O)CC1(C)c1ccccc1 (racemic) [Example 46]
Emax / %: 105
--
Compound: CN1C(=O)N(c2c(F)cc(C#Cc3ccccc3)cc2F)C(=O)C[C@@]1(C)c1ccc2nccn2n1 [Example 85]
Emax / %: 88

---

Target Desc: human mGlu4 receptor (Homo sapiens, UniProt Q14833)
Construct: expressed in transfected cells; host or cells: HEK-293 (monoclonal, stably transfected)
Sequence (Q14833 33-912): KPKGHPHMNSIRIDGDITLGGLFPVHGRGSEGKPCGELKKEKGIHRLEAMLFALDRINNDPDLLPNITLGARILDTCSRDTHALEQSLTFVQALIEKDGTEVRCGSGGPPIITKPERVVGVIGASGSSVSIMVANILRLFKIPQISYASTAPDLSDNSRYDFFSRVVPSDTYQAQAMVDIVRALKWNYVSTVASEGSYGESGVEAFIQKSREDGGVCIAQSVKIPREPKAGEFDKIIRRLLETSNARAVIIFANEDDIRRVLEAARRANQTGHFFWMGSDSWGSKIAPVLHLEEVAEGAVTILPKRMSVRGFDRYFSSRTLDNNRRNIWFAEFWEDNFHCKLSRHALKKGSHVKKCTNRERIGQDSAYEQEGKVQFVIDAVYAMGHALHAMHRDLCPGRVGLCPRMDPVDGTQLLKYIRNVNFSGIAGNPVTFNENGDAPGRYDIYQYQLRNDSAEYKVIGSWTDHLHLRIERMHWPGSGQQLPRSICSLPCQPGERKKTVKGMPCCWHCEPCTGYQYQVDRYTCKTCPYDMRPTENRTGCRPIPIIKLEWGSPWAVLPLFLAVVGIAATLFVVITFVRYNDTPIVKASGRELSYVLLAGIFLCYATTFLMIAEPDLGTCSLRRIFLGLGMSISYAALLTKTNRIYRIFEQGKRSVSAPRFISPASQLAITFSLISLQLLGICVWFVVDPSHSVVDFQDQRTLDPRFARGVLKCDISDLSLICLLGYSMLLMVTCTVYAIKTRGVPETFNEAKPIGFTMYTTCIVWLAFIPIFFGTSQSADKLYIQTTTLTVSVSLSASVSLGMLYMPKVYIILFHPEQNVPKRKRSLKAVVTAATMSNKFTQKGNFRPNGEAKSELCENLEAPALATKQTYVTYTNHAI
Test Protocol: Ca2+ mobilization in vitro assay on recombinant human mGlu4 expressed in HEK293 cells (mGlu4 PAM)
Type: cell-based
Cond: HEK-293 cells, Ca2+ mobilization, L-AP4 added at EC20
Value Kind: log10 EC50 (log10 of the value in nM)

Compound: CN1C(=O)N(c2c(F)cc(C#Cc3ccccc3)cc2F)C(=O)CC12CCOC2 (racemic)
log10 EC50: 2.41
--
Compound: CCn1cc([C@]2(C)CC(=O)N(c3c(F)cc(C#Cc4ccccc4)cc3F)C(=O)N2C)ccc1=O
log10 EC50: 1.75
--
Compound: CN1C(=O)N(c2c(F)cc(C#Cc3cccnc3)cc2F)C(=O)CC1(C)c1ccccc1Cl (racemic)
log10 EC50: 2.60
--
Compound: CC1C(=O)N(c2c(F)cc(C#Cc3ccccc3)cc2F)C(=O)N(C)C1(C)C (racemic)
log10 EC50: 2.20
--
Compound: CC(C)C1(C)CC(=O)N(c2c(F)cc(C#Cc3ccccc3)cc2F)C(=O)N1C (racemic)
log10 EC50: 1.81
--
Compound: CCC1(CC)CC(=O)N(c2c(F)cc(C#Cc3ccccc3)cc2F)C(=O)N1C
log10 EC50: 1.86
--
Compound: CC12CC(=O)N(c3c(F)cc(C#Cc4ccccc4)cc3Cl)C(=O)N1CCNC2=O (racemic)
log10 EC50: 2.03
--
Compound: CN1C(=O)N(c2ccc(C#Cc3ccccc3)cc2Cl)C(=O)CC12CCC2
log10 EC50: 2.48
--
Compound: CCC1(c2ccccc2)CC(=O)N(c2c(F)cc(C#Cc3cccnc3)cc2F)C(=O)N1C (racemic)
log10 EC50: 1.94
--
Compound: CN1CCN2C(=O)N(c3c(F)cc(C#Cc4ccccc4)cc3F)C(=O)CC2(C)C1=O (racemic)
log10 EC50: 2.20
--
Compound: CN1C(=O)N(c2c(F)cc(C#Cc3ccccc3)cc2F)C(=O)C[C@@]1(C)c1ccc2nccn2n1
log10 EC50: 1.76
--
Compound: CN1C(=O)N(c2ncc(C#Cc3ccccc3)cc2Cl)C(=O)CC1(C)c1ccccc1 (racemic)
log10 EC50: 2.19
--
Compound: CC(C)(C)C1(C)CC(=O)N(c2c(F)cc(C#Cc3ccccc3)cc2F)C(=O)N1 (racemic)
log10 EC50: 1.88
--
Compound: CN1C(=O)N(c2c(F)cc(C#Cc3ccccc3)cc2F)C(=O)CC1(C)c1ccccc1 (racemic)
log10 EC50: 1.45
--
Compound: CN1C(=O)N(c2ccc(C#Cc3ccccc3)cn2)C(=O)CC1(C)c1ccccc1 (racemic)
log10 EC50: 2.98
--
Compound: CN1C(=O)N(c2c(F)cc(C#Cc3ccccc3)cc2F)C(=O)C[C@@]1(C)c1ccncc1
log10 EC50: 1.83
--
Compound: CN1C(=O)N(c2c(F)cc(C#Cc3ccccc3)cc2F)C(=O)CC1(C)c1ccccn1 (racemic)
log10 EC50: 1.86
